Recorded values, source paper PMC5383425.

- TESTED_TARGET: T1, TDR-R421A/R423A double mutant (ecdTDR) (Arabidopsis thaliana, UniProt Q9FII5 30-642, R421A | R423A)
- T1 sequence: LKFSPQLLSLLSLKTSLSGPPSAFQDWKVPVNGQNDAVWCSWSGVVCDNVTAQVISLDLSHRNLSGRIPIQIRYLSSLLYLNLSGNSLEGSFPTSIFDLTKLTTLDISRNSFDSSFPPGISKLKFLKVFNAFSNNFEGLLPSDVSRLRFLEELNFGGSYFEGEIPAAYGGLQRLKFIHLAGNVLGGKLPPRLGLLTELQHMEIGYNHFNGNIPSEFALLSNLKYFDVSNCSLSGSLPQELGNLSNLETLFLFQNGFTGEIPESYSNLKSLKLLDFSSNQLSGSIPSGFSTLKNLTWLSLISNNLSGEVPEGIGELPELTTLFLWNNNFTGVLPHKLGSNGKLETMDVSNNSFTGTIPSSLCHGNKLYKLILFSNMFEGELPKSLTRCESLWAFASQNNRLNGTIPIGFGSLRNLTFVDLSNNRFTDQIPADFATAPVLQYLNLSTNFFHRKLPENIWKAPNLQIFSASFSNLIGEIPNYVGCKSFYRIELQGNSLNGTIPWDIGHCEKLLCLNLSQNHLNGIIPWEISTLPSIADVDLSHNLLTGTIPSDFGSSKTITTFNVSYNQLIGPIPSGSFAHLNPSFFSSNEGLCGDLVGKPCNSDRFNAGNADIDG
- TEST_PROTOCOL: ITC
Square brackets hold non-standard residues; d marks the D form. Ends that are not written are not given here. Hyp = O=C(O)[C@@H]1C[C@@H](O)CN1

BINDER	Kd [nM]
HEV[Hyp]SG[Hyp]NPISN (TDIF, the 12-residue CLE peptide processed from CLE41 and CLE44 of A. thaliana; printed as HEV(Hyp)SG(Hyp)NPISN; numbers count on: the 12-residue peptide; CLE44 encodes the same peptide; also called wild type TDIF; wtTDIF; source: synthetic peptide (peptide 2.0)) [Tracheary Element Differentiation Inhibitory Factor (TDIF) peptide]	306
